assay: NCI Yeast Anticancer Drug Screen. Data for the sgs1 mgt1 strain (AID 161);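 note: 0% = growth of cultures given vehicle only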; settings: S. cerevisiae sgs1 mgt1 strain, at 50.0 µM, active compounds read high
The panel holds about 79,000 compounds, 15% with a hit somewhere; the sample as a whole holds those more often.
assay readout: growth inhibition (%)
Reply numerically in %, unit not repeated.

Cc1ccc(S(=O)(=O)N/N=C2\CCC3CC2C3(C)C)cc1 (configuration not stated): -14.2

Here's the next entry for you.
Query: Give the value of growth inhibition reported for the following: CC(=O)c1cc2c(cc1C(C)C)CC[C@H]1[C@](C)(C#N)CCC[C@]21C
Response: 1.25

----------
Assay: NCI Yeast Anticancer Drug Screen. Data for the cln2 rad14 strain (AID 165);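 note: 0% = growth equal to vehicle treated cultures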
Settings: S. cerevisiae cln2 rad14 strain, at 50.0 µM, active compounds read high
Protocol: Growth inhibition of yeast strains with defined genetic alterations is measured as a screen for potential anti-cancer activity. Selected strains with alterations in DNA damage repair or cell cycle control were exposed to compounds and growth inhibition was measured relative to vehicle treated controls. The strain used in this assay is cln2 rad14
About 79,000 compounds went through this panel and 15% of them were active in at least one assay; those are over-represented in the sample as a whole.
assay readout: growth inhibition (%)
Reply numerically in %, unit not repeated.

COc1ccc2c3c([nH]c2c1)[C@H]1C[C@H]2[C@H](C[C@@H](O)[C@H](OC)[C@H]2C(=O)O)CN1CC3: 1.85

Query: Give the value of growth inhibition reported for the following: O=C(Nc1ccccc1)Oc1ccc(/C=N/Sc2cccc([N+](=O)[O-])c2)cc1
Response: 21.2

----------
assay: NCI Yeast Anticancer Drug Screen. Data for the cln2 rad14 strain (AID 165);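 note: 0% = growth equal to vehicle treated cultures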; conditions: S. cerevisiae cln2 rad14 strain, at 50.0 µM, active compounds read high
This is part of a sample that, as a whole, favours compounds with a hit. Of some 79,000 tested, about 15% had one in any assay.
assay readout: growth inhibition (%)
Reply numerically in %, unit not repeated.

The following compounds have reported results that may help.
CN(C)CC1CCCCC1O (configuration not stated): 25.1
CCOc1ccccc1C=Nc1cc(C(C)C)c(O)cc1C: -4.6
Nc1ccncn1: -5

Query: Give the value of growth inhibition reported for the following: C#CCN(C(=O)C(F)(F)F)C(/C=C\C(=O)OC)(C(=O)OCC)C(=O)OCC
Response: -4.5

Query: Give the value of growth inhibition reported for the following: CC1=CC(C)S(=O)(=O)C1 (configuration not stated)
Response: -5.7

----------
assay: NCI Yeast Anticancer Drug Screen. Data for the bub3 strain (AID 167); conditions: S. cerevisiae bub3 mutant strain, at 50.0 µM, active compounds read high
Compounds without any hit were thinned out: in the full panel of roughly 79,000, 15% have a hit.
assay readout: growth inhibition (%)
Reply numerically in %, unit not repeated.

The following compounds have reported results that may help.
CCOC(=O)C1=C(C)N(NC(N)=O)C2(N)N(NC(N)=O)C(C)=C(C(=O)OCC)C12C#N (stereo not given): 10.6
O=C(Cn1c2c(c3ccccc31)CCCC2)N1CCOCC1: -23.8

Query: Give the value of growth inhibition reported for the following: S=C1Cc2c(-c3ccccc3)cc(-c3ccc(Cl)cc3)nc2-c2ccccc2N1
Response: 6.75

Query: Give the value of growth inhibition reported for the following: Nc1c2ccccc2nc2nccnc12
Response: -3

Query: Give the value of growth inhibition reported for the following: c1cncc([O][Ge]([O]c2cccnc2)([O]c2cccnc2)[O]c2cccnc2)c1
Response: 3

Query: Give the value of growth inhibition reported for the following: CCOC(=O)c1ccccc1O
Response: -12.4

Query: Give the value of growth inhibition reported for the following: O=C(O)COc1c2occc2cc2ccc(=O)oc12
Response: -3.1
